Hey, just so you know, these numbers are from ChEMBL document CHEMBL1201862.

- Test system: SK-MEL-28
- Measurement Description: NCI tumour cell line growth inhibition, 48 h
Calls of active or inactive are those of the source. Rule as the data show it: active = GI50 up to about 1.1 µM and inactive = higher.
Observation Type: GI50

>>> df
                                   molecule  observation_type               result
0      NS(=O)(=O)c1ccc(/C=C/c2cccc(O)c2)cc1              GI50   74.5 µM (inactive)
1  N=C(N)NS(=O)(=O)c1ccc(NNc2c3ccccc3nc3c(C(=O)Nc4ccc(S(N)(=O)=O)cc4)cccc23)cc1              GI50   68.1 µM (inactive)
2                      CC(C)C(=O)CP(=O)(O)O              GI50  > 100 µM (inactive)
3  COC(=O)C1(F)C(=O)NC(=O)NC1OC (stereo not drawn)              GI50   59.6 µM (inactive)
4  c1ccc(N2CCN(CCN3CCc4c([nH]c5ccccc45)C3c3cccnc3)CC2)cc1 (stereo not drawn)              GI50  > 100 µM (inactive)

I need GI50 for every entry listed below, if you could help.
1. CCOC(=O)c1cc2cc3c4c(c2oc1=O)CCCN4CCC3
2. O=C1COCCN1C(=O)c1ccccc1Cl

43.4 µM (inactive)
> 100 µM (inactive)

I need GI50 for every entry listed below, if you could help.
1. [O-]c1c2c(nn1-c1ccc(Cl)cc1)c1ccccc1c[n+]2Cc1ccccc1
2. O=C1c2ccccc2C(Br)(Br)c2ccccc21
3. CCOP(=O)(OCC)/C(C#N)=C/c1ccco1
4. CCn1nc2c3c(ncn3C(C)(C)O2)c1=O

> 100 µM (inactive)
> 31.6 µM (inactive)
> 100 µM (inactive)
> 100 µM (inactive)

* * *

- System: OVCAR-5
- Measurement Description: NCI tumour cell line growth inhibition, 48 h
Calls of active or inactive are those of the source. No stated cut-off is given here; in the data, active = GI50 up to about 1.1 µM and inactive = higher.
Observation Type: GI50

Below, 8 compounds whose answers are already recorded.
Compound	GI50
COC(=O)C1=C(OC(=O)/C(=C/c2ccccc2)c2ccc(Cl)cc2Cl)C(C(=O)OC)[C@@]2(O)[C@@H](C(=O)OC)[C@H](C)C[C@@H]1[C@@H]2C(=O)OC (some centres undefined)	> 100 µM (inactive)
COc1cc2cc(C(=O)N3CC(COS(C)(=O)=O)c4ccc(NC(=O)OCc5ccccc5)cc43)[nH]c2c(OC)c1OC (centres undefined)	> 100 µM (inactive)
CC(C)C(=O)CP(=O)(O)O	> 100 µM (inactive)
O=C1c2ccccc2CCCCCCCCCCC12OCCCO2	26.7 µM (inactive)
COc1c2ccsc2c(OC)c2ccsc12	> 100 µM (inactive)
CN(C)CC1(Cc2ccccc2)CC/C(=C\c2ccccc2)C1=O (centres undefined)	40.6 µM (inactive)
CCOC(=O)c1c(-c2ccc(OC)c(O)c2)c(C#N)c(=S)n(C2OC(COC(C)=O)C(OC(C)=O)C(OC(C)=O)C2OC(C)=O)c1-c1ccccc1 (centres undefined)	> 100 µM (inactive)
CCN(CC)CCCC(C)Nc1c2ccc(Cl)cc2nc2ccc(OC)cc12 (centres undefined)	2 µM (inactive)

Notebook: CCCn1c(=O)c2ccccc2[n+]2c(-c3ccc([N+](=O)[O-])cc3)csc12 , GI50 read as 17.8 µM (inactive)
